test: E. coli acrAB mutant growth effects, primary screen, E. coli filamentation inducers, strain DRC39, OD650, 24 h (AID 1178); settings: higher = more signal, called active from +8 up or from −8 down;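 also: growth measured as culture turbidity by optical density at 650 nm; test concentration not given here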

{"Line Notation": "O=C1O[C@@H](c2ccccc2)[C@@H](c2ccccc2)N2[C@@H](c3ccc(OCCO)cc3)[C@]3(C(=O)Nc4ccc(C#CCCO)cc43)[C@@H](C(=O)Nc3nc4ccccc4s3)[C@H]12", "z-score": 0.042}
{"Line Notation": "C[N+](C)(C)CCCC[C@@H]1NC(=O)[C@H]2C[C@@H](C(=O)NCCCCCNC(=O)CS)[C@@H](c3ccc(O)cc3)N2C1=O", "z-score": 0.902}
{"Line Notation": "CC(C)C[C@@H]1NC(=O)[C@H]2C[C@@H](C(=O)NCCCCCNC(=O)CS)[C@@H](c3ccc(O)cc3)N2C1=O", "z-score": -0.117}
{"Line Notation": "COc1ccc(CCNC(=O)[C@@]2(Sc3ccc(C)cc3)CC(=O)N(Cc3cc(C(F)(F)F)cc(C(F)(F)F)c3)[C@@H]2c2ccc(CO)cc2)cc1", "z-score": 0.0664}
{"Line Notation": "CC(=O)NCCCC[C@@H]1NC(=O)[C@H]2C[C@@H](C(=O)NCCCCCC[N+](C)(C)C)[C@@H](c3ccc(O)cc3)N2C1=O", "z-score": -0.04}
